- System: A549
- TEST_NAME: cells
- Assay type: functional, cell-based
- ASSAY_CONTEXT: Homo sapiens, A549, 96 h
- Description: Cytotoxicity against human A549 cells after 96 hrs by MTT assay
For each entry below, report its pIC50 value.
One number for each entry, as −log10 of the molar value.

Worked examples, 3 compounds total:
smiles_data=COc1ncc(-c2cc(O[C@@H]3CCOC3)c3nc(N)nc(C)c3c2)cc1NS(=O)(=O)c1ccc(F)cc1F tgt=A549 observed_measurement=7.08
smiles_data=CNc1nc(C)c2cc(-c3cnc(OC)c(NS(=O)(=O)c4ccc(F)cc4F)c3)cc(OC3CCOCC3)c2n1 tgt=A549 observed_measurement=6.96
smiles_data=COc1ncc(-c2cc(OC3CCOCC3)c3nc(N)nc(C)c3c2)cc1NS(=O)(=O)c1ccc(F)cc1F tgt=A549 observed_measurement=7.28

Consider the record given below.
[ask] // query pIC50 value for entry `CNc1nc(C)c2cc(-c3cnc(OC)c(NS(=O)(=O)c4ccc(F)cc4F)c3)cc(O[C@@H]3CCOC3)c2n1`
[reply] 6.92
